Source listed as patent US20090215758A1.

Measured inhibition at 10 µM of individual entries
- Measured On: VR1 (human) (Homo sapiens)
- Construct: expressed in transfected cells; host or cells: CHO K1 cells (ECACC), stably transfected
- Assay Explanation: Functional study on vanilloid receptor (VR1), FLIPR Ca2+ assay in CHO K1 cells stably transfected with the VR1 gene
- Assay type: cell-based
- Condition Set: CHO-K1, test compound 10 μM, 5 min incubation, then 100 nM capsaicin; compared to 10 μM CP
Please give a number only; it is taken to be in %.

Worked cases, answers included:
Cc1ccc(C=C2SC(N3CCN(Cc4ccccc4)CC3)=NC2=O)cc1 [Example 63]; 52.8
O=C1N=C(N2CCOCC2)SC1=Cc1cccc(Oc2ccccc2)c1 [Example 18]; 79.2
O=C1N=C(N2CCSCC2)SC1=Cc1ccccc1C(F)(F)F [Example 22]; 80.8
O=C1N=C(N2CCOCC2)SC1=CC=CSc1ccccc1 [Example 12]; 54.3
Cc1ccc(C=CC=C2SC(N3CCOCC3)=NC2=O)cc1 [Example 19]; 10.8

Query O=C1N=C(N2CCOCC2)SC1=Cc1cccc2ccccc12 [Example 209] yields inhibition at 10 µM of 5.47

Query Cc1ccc(N2CCN(C3=NC(=O)C(=Cc4ccc(C(C)(C)C)cc4)S3)CC2)nn1 [Example 154] yields inhibition at 10 µM of 34.2

Query O=C1N=C(N2CCSCC2)SC1=CC=Cc1ccccc1 [Example 25] yields inhibition at 10 µM of 37.6

Query O=C1N=C(N2CCSCC2)SC1=Cc1cccc2ccccc12 [Example 41] yields inhibition at 10 µM of 22.6

* * *

- Measured On: vanilloid receptor 1 (VR1/TRPV1) of the rat species (Rattus norvegicus, UniProt O35433)
- Construct: The spinal column is removed from beheaded rats
- Sequence (O35433 whole entry): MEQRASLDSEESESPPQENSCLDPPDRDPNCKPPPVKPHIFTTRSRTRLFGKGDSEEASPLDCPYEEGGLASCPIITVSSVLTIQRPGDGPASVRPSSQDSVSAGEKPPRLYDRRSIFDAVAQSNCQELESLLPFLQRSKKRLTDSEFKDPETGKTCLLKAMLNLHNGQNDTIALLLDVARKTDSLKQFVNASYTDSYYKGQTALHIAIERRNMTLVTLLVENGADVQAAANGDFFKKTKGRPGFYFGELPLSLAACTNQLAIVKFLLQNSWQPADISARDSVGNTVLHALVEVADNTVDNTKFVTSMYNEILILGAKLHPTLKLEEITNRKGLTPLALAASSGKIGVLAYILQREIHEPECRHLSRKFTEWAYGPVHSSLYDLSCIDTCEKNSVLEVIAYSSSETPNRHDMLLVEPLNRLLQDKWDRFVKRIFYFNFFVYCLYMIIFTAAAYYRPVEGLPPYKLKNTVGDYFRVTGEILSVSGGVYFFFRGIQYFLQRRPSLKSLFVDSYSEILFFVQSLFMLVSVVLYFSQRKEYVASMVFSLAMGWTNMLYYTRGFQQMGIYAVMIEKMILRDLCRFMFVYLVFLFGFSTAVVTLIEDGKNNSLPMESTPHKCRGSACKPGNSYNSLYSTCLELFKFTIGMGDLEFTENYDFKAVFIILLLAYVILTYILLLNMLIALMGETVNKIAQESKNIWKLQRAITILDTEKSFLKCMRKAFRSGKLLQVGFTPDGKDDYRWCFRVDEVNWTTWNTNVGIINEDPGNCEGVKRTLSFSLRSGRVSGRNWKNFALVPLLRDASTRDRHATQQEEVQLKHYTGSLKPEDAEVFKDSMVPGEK
- Assay Explanation: Functional study on vanilloid receptor 1, FLIPR Ca2+ assay in rat dorsal root ganglia cells
- Condition Set: unit inferred
Counter-ions that a name gives are not always drawn.
Result Type: EC50

Worked cases, answers included:
O=C1N=C(N2CCCCC2)SC1=CC=Cc1ccccc1 [Example 191, hydrobromide]; > 25 µM
CC(C)(C)c1ccc(C=C2SC(N3CCCCCC3)=NC2=O)cc1 [Example 200, hydrobromide]; > 25 µM
O=C1N=C(N2CCOCC2)SC1=CC=Cc1ccccc1 [Example 189, hydrobromide]; > 25 µM

Now turn to the next molecule.
vanilloid receptor 1 (VR1/TRPV1) of the rat species (Rattus norvegicus, UniProt O35433) assay, molecule O=C1N=C(N2CCCCCC2)SC1=CC=Cc1ccccc1 [Example 192, hydrobromide] , recorded EC50 = > 50 µM

* * *

Measured pEC50 of individual entries
- Measured On: UniProt Q8NER1
- Assay Explanation: Functional study on vanilloid receptor (VR1), FLIPR Ca2+ assay in CHO K1 cells stably transfected with the VR1 gene
- Condition Set: unit inferred
pEC50: −log10 of the molar value. Structures can show the parent of a compound that is named as a salt.

Br.O=C1N=C(N2CCSCC2)SC1=CC=Cc1ccccc1 [Example 190, hydrobromide]; < 4.60
O=C1N=C(N2CCOCC2)SC1=CC=Cc1ccccc1 [Example 189, hydrobromide]; < 4.30
CC(C)(C)c1ccc(C=C2SC(N3CCCCCC3)=NC2=O)cc1 [Example 200, hydrobromide]; < 4.60
O=C1N=C(N2CCCCCC2)SC1=CC=Cc1ccccc1 [Example 192, hydrobromide]; < 4.30
O=C1N=C(N2CCSCC2)SC1=Cc1ccc2ccccc2c1 [Example 54]; < 4.60

Query O=C1N=C(N2CCCCC2)SC1=CC=Cc1ccccc1 [Example 191, hydrobromide] yields pEC50 of < 4.30

Query O=C1N=C(N2CCSCC2)SC1=Cc1ccc(OC(F)(F)F)cc1 [Example 24] yields pEC50 of < 4.60

* * *

- Measured On: vanilloid receptor 1 (VR1/TRPV1) of the rat species (Rattus norvegicus)
- Construct: The spinal column is removed from beheaded rats; from tissue; host or cells: primary cells from rat dorsal root ganglia (DRGs)
- Assay Explanation: Functional study on vanilloid receptor 1, FLIPR Ca2+ assay in rat dorsal root ganglia cells
- Type: cell-based
- Condition Set: test compound 10 μM, 5 min incubation, then 100 nM capsaicin; relative to maximum inhibition with 10 μM capsaicin; read-out: VR1 (rat) (% inhibition compared to 10 μM CP)
Counter-ions that a name gives are not always drawn.
Measured inhibition at 10 µM of individual entries
Please give a number only; it is taken to be in %.

Worked cases, answers included:
O=C1N=C(N2CCSCC2)SC1=Cc1cccc(C(=O)N2CCN(c3ncc(C(F)(F)F)cc3Cl)CC2)c1; 97.4
O=C1N=C(N2CCOCC2)SC1=Cc1ccccn1; 23

Query O=C1N=C(N2CCOCC2)SC1=Cc1ccc(OC(F)(F)F)cc1 yields inhibition at 10 µM of 101

Query O=C1N=C(N2CCSCC2)SC1=Cc1cccc(C(F)(F)F)c1 [Example 195, hydrobromide] yields inhibition at 10 µM of 96.1

* * *

- Measured On: VR1 (human) (Homo sapiens, UniProt Q8NER1)
- Construct: expressed in transfected cells; host or cells: CHO K1 cells (ECACC), stably transfected
- Sequence (Q8NER1 whole entry): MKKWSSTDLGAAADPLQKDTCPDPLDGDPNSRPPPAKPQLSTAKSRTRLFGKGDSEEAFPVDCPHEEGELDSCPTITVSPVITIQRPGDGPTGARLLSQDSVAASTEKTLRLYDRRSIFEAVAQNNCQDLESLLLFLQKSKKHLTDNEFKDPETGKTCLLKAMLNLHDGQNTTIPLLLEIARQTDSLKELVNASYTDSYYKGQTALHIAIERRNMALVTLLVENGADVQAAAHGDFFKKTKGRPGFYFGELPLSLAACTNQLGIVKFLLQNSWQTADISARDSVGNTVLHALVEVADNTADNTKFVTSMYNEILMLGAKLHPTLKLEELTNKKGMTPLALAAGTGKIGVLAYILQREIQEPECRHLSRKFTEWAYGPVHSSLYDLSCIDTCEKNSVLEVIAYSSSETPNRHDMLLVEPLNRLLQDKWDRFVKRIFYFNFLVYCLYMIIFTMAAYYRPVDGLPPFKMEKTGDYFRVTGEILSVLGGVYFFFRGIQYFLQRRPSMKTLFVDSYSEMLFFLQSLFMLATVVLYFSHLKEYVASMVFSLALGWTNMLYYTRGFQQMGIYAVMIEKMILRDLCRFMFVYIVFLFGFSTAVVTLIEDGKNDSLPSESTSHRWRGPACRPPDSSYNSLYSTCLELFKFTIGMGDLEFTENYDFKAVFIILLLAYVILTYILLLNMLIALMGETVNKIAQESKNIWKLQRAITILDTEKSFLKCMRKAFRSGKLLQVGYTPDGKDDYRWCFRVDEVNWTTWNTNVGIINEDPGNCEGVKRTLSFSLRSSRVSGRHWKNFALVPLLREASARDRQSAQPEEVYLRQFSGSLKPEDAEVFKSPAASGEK
- Assay Explanation: Functional study on vanilloid receptor (VR1), FLIPR Ca2+ assay in CHO K1 cells stably transfected with the VR1 gene
- Type: cell-based
- Condition Set: CHO-K1, test compound 10 μM; Ca2+ signal relative to 10 μM capsaicin (CP); read-out: VR1 (human) (% stimulation compared to 10 μM CP)
- From the text: The agonistic or antagonistic action of the substances to be tested on vanilloid receptor (VR1) can also be determined with the assay which follows. In this assay, the Ca^2+ current through the channel is quantified with the aid of a Ca^2+-sensitive dye (Fluo-4 type, Molecular Probes, Europe BV, Leiden, the Netherlands) in a fluorescent imaging plate reader (FLIPR, Molecular Devices, Sunnyvale, USA). […]
Structures can show the parent of a compound that is named as a salt.
Measured activation at 10 µM of individual entries
Please give a number only; it is taken to be in %.

Worked cases, answers included:
Cc1ccc(N2CCN(C3=NC(=O)C(=Cc4ccc(C(C)(C)C)cc4)S3)CC2)nn1; 6.56
O=C1N=C(N2CCOCC2)SC1=Cc1ccccn1; 1.83
O=C1N=C(N2CCSCC2)SC1=Cc1ccccc1C(F)(F)F; 64
O=C1N=C(N2CCCCCC2)SC1=CC=Cc1ccccc1 [Example 192, hydrobromide]; 16.7
Cc1ccc(N2CCN(C3=NC(=O)C(=CC=Cc4ccccc4)S3)CC2)nn1; 2.43

Query O=C1N=C(N2CCN(c3ncccc3Cl)CC2)SC1=Cc1ccc2ccccc2c1 yields activation at 10 µM of 0

Query O=C(NC1=NC(=O)C(=Cc2ccc(C(F)(F)F)cc2)S1)Nc1ccccc1C(F)(F)F yields activation at 10 µM of 5.03

Query CN(C)c1ccc(C=C2SC(N3CCOCC3)=NC2=O)cc1 yields activation at 10 µM of 73.9

Query CCN(CC)C1=NC(=O)C(=Cc2cccc(C(F)(F)F)c2)S1 yields activation at 10 µM of 6.08

Query COCCNC1=NC(=O)C(=Cc2ccc(C(C)(C)C)cc2)S1 [Example 216, hydrobromide] yields activation at 10 µM of 2.08

Query CC(C)(C)c1ccc(C=C2SC(N3CCSCC3)=NC2=O)cc1 [Example 198, hydrobromide] yields activation at 10 µM of 54.3

* * *

- Measured On: VR1 (human) (Homo sapiens)
- Construct: expressed in transfected cells; host or cells: CHO K1 cells (ECACC), stably transfected
- Assay Explanation: Functional study on vanilloid receptor (VR1), FLIPR Ca2+ assay in CHO K1 cells stably transfected with the VR1 gene
- Assay type: cell-based
- Condition Set: CHO-K1, test compound 10 μM; Ca2+ signal relative to 10 μM capsaicin (CP); read-out: VR1 (human) (% stimulation compared to 10 μM CP)
Counter-ions that a name gives are not always drawn.
Measured activation at 10 µM of individual entries
Please give a number only; it is taken to be in %.

VR1 (human) (Homo sapiens) assay, molecule COc1ccc(C=C2SC(N3CCOCC3)=NC2=O)cc1OCc1ccccc1 [Example 13] , recorded activation at 10 µM = 6.15

VR1 (human) (Homo sapiens) assay, molecule Cc1ccc(C=CC=C2SC(N3CCOCC3)=NC2=O)cc1 [Example 19] , recorded activation at 10 µM = 8.82

VR1 (human) (Homo sapiens) assay, molecule O=C1N=C(N2CCOCC2)SC1=Cc1ccc(OC(F)(F)F)cc1 [Example 36] , recorded activation at 10 µM = 47.4

VR1 (human) (Homo sapiens) assay, molecule O=C1N=C(N2CCOCC2)SC1=Cc1cccc(C(F)(F)F)c1 [Example 205, hydrobromide] , recorded activation at 10 µM = 68.2

VR1 (human) (Homo sapiens) assay, molecule CC(=CC=C1SC(N2CCOCC2)=NC1=O)c1ccc(C)cc1 [Example 33] , recorded activation at 10 µM = 25.7

VR1 (human) (Homo sapiens) assay, molecule CC(C)c1ccc(C=C2SC(N3CCSCC3)=NC2=O)cc1 [Example 136] , recorded activation at 10 µM = 114

VR1 (human) (Homo sapiens) assay, molecule O=C1N=C(N2CCSCC2)SC1=Cc1cccc2ccccc12 [Example 41] , recorded activation at 10 µM = 0.47

VR1 (human) (Homo sapiens) assay, molecule O=C1N=C(N2CCSCC2)SC1=Cc1ccccc1 [Example 42] , recorded activation at 10 µM = 49.7

VR1 (human) (Homo sapiens) assay, molecule O=C1N=C(N2CCSCC2)SC1=CC(Cl)=Cc1ccccc1 [Example 85] , recorded activation at 10 µM = 82.5

VR1 (human) (Homo sapiens) assay, molecule Cc1ccc(C=C2SC(N3CCSCC3)=NC2=O)cc1 [Example 14, hydrobromide] , recorded activation at 10 µM = 107
